# Target under test: Procathepsin L (Homo sapiens)
# Measurement notes: Inhibition of recombinant cathepsin-L (unknown origin) using Z-Phe-Arg-AMC as substrate by fluorescence assay
# Sequence (P07711 whole entry): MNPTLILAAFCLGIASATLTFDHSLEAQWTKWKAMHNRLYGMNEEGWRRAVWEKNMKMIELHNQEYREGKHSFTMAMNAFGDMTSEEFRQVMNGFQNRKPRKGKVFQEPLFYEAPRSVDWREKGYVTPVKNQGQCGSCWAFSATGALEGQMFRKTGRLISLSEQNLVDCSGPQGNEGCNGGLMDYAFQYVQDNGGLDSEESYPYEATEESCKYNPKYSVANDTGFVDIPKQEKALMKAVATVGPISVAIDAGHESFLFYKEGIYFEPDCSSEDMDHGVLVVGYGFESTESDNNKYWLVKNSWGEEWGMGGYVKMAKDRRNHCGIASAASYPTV
pKi: −log10 of the molar value. Peptide text beside a SMILES is read from it. * marks the point of attachment. Cbz = O=C(OCc1ccccc1)*
If the reported pKi equals or exceeds 5, assign Satisfied. If not, assign Not satisfied.

Check out these entries, answers already filled in.
Compound	Qualitative label
N=C(N)NCCC[C@H](NC(=O)OCc1ccccc1)C(=O)N[C@@H](Cc1ccccc1)C(=O)N[C@@H](CCCCN)C(N)=O (Cbz-Arg-Phe-Lys-NH2)	Satisfied
NCCCC[C@H](NC(=O)[C@H](Cc1c[nH]c2ccccc12)NC(=O)OCc1ccccc1)C(N)=O (Cbz-Trp-Lys-NH2)	Satisfied
CC(C)[C@H](NC(=O)[C@H](Cc1ccccc1)NC(=O)OCc1ccccc1)C(N)=O (Cbz-Phe-Val-NH2)	Not satisfied
CN(C)c1ccc(C(=O)N[C@@H](Cc2ccccc2)C(=O)N[C@@H](CCCCN)C(N)=O)cc1	Satisfied
NCCCC[C@H](NC(=O)[C@H](Cc1ccccc1)NC(=O)c1cc([N+](=O)[O-])ccc1Cl)C(N)=O	Satisfied
NCCCC[C@H](NC(=O)[C@H](Cc1ccc(-c2cccc(Cl)c2)cc1)NC(=O)OCc1ccccc1)C(N)=O	Satisfied
CNCCCC[C@H](NC(=O)[C@H](Cc1ccccc1)NC(=O)OCc1ccccc1)C(N)=O	Satisfied
N=C(N)NCCC[C@H](NC(=O)[C@H](Cc1ccccc1)NC(=O)OCc1ccccc1)C(N)=O (Cbz-Phe-Arg-NH2)	Not satisfied

Could you now look at the following compound, please?
Q: Does pKi meet or surpass 5 for NCCCC[C@H](NC(=O)[C@H](Cc1ccccc1)NC(=O)CCc1ccccc1)C(N)=O ?
A: Satisfied

----------
Each record here notes measured Ratio Ki.
# Organism: Homo sapiens
# Measurement notes: Selectivity ratio of Ki for recombinant cathepsin-B (unknown origin) to Ki for recombinant cathepsin-L (unknown origin)
Peptide text beside a SMILES is read from it. * marks the point of attachment. Cbz = O=C(OCc1ccccc1)*
Give only the figure.

Compound	Ratio Ki
NCCCC[C@H](NC(=O)[C@H](Cc1ccccc1)NC(=O)c1cc([N+](=O)[O-])ccc1Cl)C(N)=O	651
NCCCC[C@H](NC(=O)[C@H](Cc1ccccc1)NC(=O)[C@H](Cc1c[nH]c2ccccc12)NC(=O)OCc1ccccc1)C(N)=O (Cbz-Trp-Phe-Lys-NH2)	2140
CC(C)(C)c1ccc(C(=O)N[C@@H](Cc2ccccc2)C(=O)N[C@@H](CCCCN)C(N)=O)cc1	312
NCCCC[C@H](NC(=O)[C@H](Cc1ccccc1)NC(=O)[C@H](CCC(N)=O)NC(=O)OCc1ccccc1)C(N)=O (Cbz-Gln-Phe-Lys-NH2)	506
NCCCC[C@H](NC(=O)[C@H](Cc1ccccc1)NC(=O)c1ccccn1)C(N)=O	15
NCCCC[C@H](NC(=O)[C@H](Cc1ccccc1)NC(=O)c1ccnc(-c2cc(C(=O)O)ccn2)c1)C(N)=O	187

Consider now this further compound.
Q: Request the reported Ratio Ki associated with NCCCC[C@H](NC(=O)[C@H](Cc1ccccc1)NC(=O)c1ccc(Br)cc1)C(N)=O
A: 113

----------
Each record here notes measured Ka.
# Target under test: Procathepsin L (Homo sapiens, UniProt P07711)
# Measurement notes: Irreversible inhibition of recombinant cathepsin-L (unknown origin) using Z-Phe-Arg-AMC as substrate
# Sequence (P07711 114-333 limits assumed): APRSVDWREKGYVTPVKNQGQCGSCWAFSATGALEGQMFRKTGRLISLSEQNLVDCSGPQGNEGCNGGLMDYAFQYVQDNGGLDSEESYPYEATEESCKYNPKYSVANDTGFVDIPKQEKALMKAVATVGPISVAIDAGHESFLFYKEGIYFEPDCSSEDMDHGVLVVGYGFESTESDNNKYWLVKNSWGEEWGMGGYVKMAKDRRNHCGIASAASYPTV

// below: answered compounds
Molecule	Outcome measure	Observed
Cc1cccc(C)c1C(=O)OCC(=O)[C@H](CCCCN)NC(=O)[C@H](Cc1ccccc1)NC(=O)OCc1ccccc1	Ka	2.96 ×10⁵ /s/M
Cc1cccc(C)c1C(=O)OCC(=O)[C@H](CCCCN)NC(=O)[C@H](Cc1ccccc1)NC(=O)[C@H](CCCNC(=N)N)NC(=O)OCc1ccccc1	Ka	8.75 ×10⁵ /s/M
Cc1cccc(C)c1C(=O)OCC(=O)[C@H](CCCCN)NC(=O)[C@H](Cc1ccccc1)NC(=O)[C@H](Cc1c[nH]c2ccccc12)NC(=O)OCc1ccccc1	Ka	3.92 ×10⁵ /s/M
Cc1cccc(C)c1C(=O)OCC(=O)[C@H](CCCCN)NC(=O)[C@H](Cc1ccccc1)NC(=O)[C@H](CCCCN)NC(=O)OCc1ccccc1	Ka	2.52 ×10⁵ /s/M

Q: Request the reported Ka associated with Cc1cccc(C)c1C(=O)OCC(=O)[C@H](CCCCN)NC(=O)[C@H](Cc1ccccc1)NC(=O)[C@H](CC(C)C)NC(=O)OCc1ccccc1
A: 2.69 ×10⁵ /s/M

// provenance: ChEMBL document CHEMBL2380300
